- ASSAY_METHOD_TEXT: protease stability score; higher = more stable; yeast display proteolysis, trypsin and chymotrypsin;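 note: relative to predicted unfolded state with 0 unfolded-like and 1 meaning tenfold more protease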
Binary call on protease stability score: Criterion met from 1 upward, Criterion not met beneath that.

SEQUENCE_STRING: DDEDRHASKLYHIIVHLEVTGDFEKWRDYADPNVRIVIGDKEFHGRELFMEWLKEIRLERFRIKHIKVIGEKTNSTTSFEVNVNGVRIENDTRIHIHVIDGKVHSVHFEIR
ANSWER_LABEL: Criterion met

SEQUENCE_STRING: SEMEHNLLEFIEHLLRNWRTGDEDREHELADPHYRIDVNGVELHGMEYLLEMFRRLGIDHMEFELKRSTVVGDFAIVDGNLQFHVDGKWERRKVKMVNKKVDGRWHHTQFSVN
ANSWER_LABEL: Criterion met

SEQUENCE_STRING: DEDERHTKILIDLLLHNSHTGDEHVLRHLFDPNVKIVIGDKELIGREYADQFIKRVDVIDHIEIKDWHTIGDKVHFHGETEGVIDGRKVHTHVKLEMKKFDGRWLIHRIVIR
ANSWER_LABEL: Criterion met

SEQUENCE_STRING: SESEEDFRWFMHVLLKTFLTGDEDEFDSLIDPNVRLIVNGKDTHGWEVAVKFVRRFDHLDLYVRESEIQGDKVESDTELIVNFNGVSIKHKTRVIAEKVNGRWILREMRIG
ANSWER_LABEL: Criterion met

SEQUENCE_STRING: DREEEDYRRAWEHLHKDWKTGNEEHMERNADPNVRVEINGVERVGRELFVELMRHLVRHIRIEHVHVERSDIVNGVIILDMIVTGRIGDKSEIERVEVHTLKIDGRWLLTEVRFK
ANSWER_LABEL: Criterion not met

SEQUENCE_STRING: SEEEEEMKLAKRLLENISETGDERELEELLDPNVRIVIGDKHEHGRESVEHWFRRIDHIKHFEIERVTVFDGRVEMHGRMVGTINGKHKNTRITLIAVKINGRWVLQHRILE
ANSWER_LABEL: Criterion not met

SEQUENCE_STRING: DEEEEYYRVAIEIWLRVMMTGDPKYFDRLADPHVRVEQGDKRLHGMEDWSKRLEHMRIDHINIHQFKVVNGKIHVDTEVRGDVDGVEFRTRMELIFEKVDGRWILRRIHIN
ANSWER_LABEL: Criterion met

SEQUENCE_STRING: DERTEHFREYREKVLESIETGDPRVIKEMLDPNAKVEIVIGEKNFDLHGREEVMRWYEEWVEKYKGMRIHINHVEVQGEKIIVDSELEVNGKSHKTDLIITAFNGVIKETRVEIN
ANSWER_LABEL: Criterion met

Could you verify whether the entry DHEEEHARSIIELLLYAFTTGNEKLLRRLIDPDAKVDIDGKSLHGMEDVSRHLREMIDHWRFRHIDVRRLEVQGEWIHITGRWDGDQGDKKVERDVEVRVLVVDGRVKHRSIHFR shows protease stability score of no less than 1?
Criterion met

Could you verify whether the entry SEEEEIRLDLARLWLELVLTGDEQVYEKLADPNVRFDVNGRELHGRETWIDLLLQFKNVVKRIELKRLDVQGDFVVLDTRLRLVVNGRTETYETWIIFYVVNGRIKEVEIRTT shows protease stability score of no less than 1?
Criterion met

Could you verify whether the entry DEKDELMERIARLMMEYLDTGDEENLNKLADPNVKIDIRIGDKVIDDHGMENLLHRLRHIRSNLRVHNFHAQGDFVKIDTRVTFHVNGQDIHHTVEVRLFIVNGKIHRIEFIFR shows protease stability score of no less than 1?
Criterion met

Could you verify whether the entry EERNKFAEDFSRIDTESHRTGDEHSLLRLFDPHARIHQGDFEMHGWEEFSRIMRHEIERYKNATFEVRVDRVDVQGDKMISDGRLHIHQGDKIREYRIFIIVTKVNGQWHIEEVHIV shows protease stability score of no less than 1?
Criterion met

Could you verify whether the entry SEDKDNAQDLLHHVVKAWNTGDEDLTRKLFDPHVRLDINGVEIHGWRDLLRVLRELRLRVEMRVHDADFINGVIHLYTTVHSHIHFNGVDFHFHHETRMIILKINGRWLVHSITYL shows protease stability score of no less than 1?
Criterion not met

Could you verify whether the entry HEEEQEIEKIVEDILRAWETGDWKTFYELADPHTKHTLIQGDKHIHRHGRDRMSDLLEELLKRFKGAIVDIKDIKWIDGQLNMTGELQIGDKKHKVHLHMNFIDGKIKRIEIRVD shows protease stability score of no less than 1?
Criterion met

Could you verify whether the entry SELEDMLRHMFDLFWRAFRTGDWELLMRLADPHVRLEVRFNGRHIEHVGRESFVESVETLRHEWRIDHLRINDEKYQGDYVNLNTRMDVFFDGVKVRTDTRVHSVVVNGRLREFSIEFG shows protease stability score of no less than 1?
Criterion not met

Attribution: the NTF2 design screens of Basanta et al. (2020)
